# target.desc: T1, yedK T80A (Escherichia coli (gene from BL21 …, UniProt P76318 2-222, T80A))
# T1 sequence: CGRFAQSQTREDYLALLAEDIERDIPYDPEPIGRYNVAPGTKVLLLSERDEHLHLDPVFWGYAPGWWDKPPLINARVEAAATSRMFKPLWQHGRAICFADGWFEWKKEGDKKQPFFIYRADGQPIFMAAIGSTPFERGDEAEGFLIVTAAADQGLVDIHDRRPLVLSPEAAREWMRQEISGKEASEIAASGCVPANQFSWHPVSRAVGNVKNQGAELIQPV
# assay.summary: ITC
measurement.type: Kd (µM)
Response body: numeric value in µM, unit text excluded.

Which measured Kd value corresponds to CGGTCGATTC (ssDNA) [ssDNA] ? 12.6

The measurements presented in this section are drawn from paper PMC6821365.
